tested on: Rat skeletal muscle-derived L6 myoblasts (differentiated into myotube cells); assay: Evaluation of glycogen accumulation in L6; format: cell-based; conditions: [14C] glycogen from D-[U-C14] glucose, 3 hours incubation, 100% = compound of Example 1 of WO/2011/058154 at 30 μM
Counter-ions that a name gives are not always drawn.

Molecule	U	Bound sign	EC50
COC[C@H]1CC[C@@H](C(=O)O)N1C(=O)c1cccc(COc2ccc(-c3cc(F)c(F)cc3SC)cc2)c1	nM	=	1800
COC[C@@H]1CC[C@@H](C(=O)O)N1C(=O)c1cccc(COc2ccc(-c3cc(F)c(F)cc3SC)cc2)c1	nM	<	300
CSc1cc(F)c(F)cc1-c1ccc(OCc2cccc(C(=O)N(CC(=O)O)CC3CCNCC3)c2)cc1 [Example 35, Trifluoroacetate]	nM	=	630
COCCN(CC(=O)O)C(=O)c1cccc(COc2ccc(-c3cc(F)c(F)cc3SC)cc2)c1	nM	=	570
CSc1cc(F)c(F)cc1-c1ccc(OCc2cccc(C(=O)N(CC(=O)O)Cc3ncco3)c2)cc1	nM	=	880

###

target: UniProtKB P13807; experiment: Measurement of glycogen synthase activity; conditions: concentration causing 50% increase in relative activity; 100% = compound of Example 1 of WO/2011/058154 at 10 μM; 10 mM Glucose-6-phosphate; 37° C. for 25 minutes (Examples 1 to 61 and 67 to 82) or 20 minutes (Examples 62 to 66); absorbance at 340 nm
Counter-ions that a name gives are not always drawn.
Could you please mark fulfilled for values of EC50 below 20 nM and not fulfilled for values at or above it?

Molecule	Class assignment
O=C(O)CN(C(=O)c1cccc(COc2ccc(-c3cc(F)c(F)c4ccoc34)cc2)c1)C1CCNC1=O (stereo not shown) [Example 82]	fulfilled
COC[C@H](C)N(CC(=O)O)C(=O)c1cccc(COc2ccc(-c3cc(F)c(F)c4ccoc34)cc2)c1 [Example 80]	not fulfilled
CSc1cc(F)c(F)cc1-c1ccc(OCc2cccc(C(=O)N(CCCN(C)C)CC(=O)O)c2)cc1 [Example 26, Trifluoroacetate]	fulfilled
CSc1cc(F)c(F)cc1-c1ccc(OCc2cccc(C(=O)N(CCC(C)O)CC(=O)O)c2)cc1 (stereo not shown) [Example 21]	fulfilled
O=C(O)[C@@H]1[C@@H](O)CCN1C(=O)c1cccc(COc2ccc(-c3cc(F)c(F)c4ccoc34)cc2)c1 [Example 2]	fulfilled
CSc1cc(F)c(F)cc1-c1ccc(OCc2cccc(C(=O)N(CCNC(C)=O)CC(=O)O)c2)cc1 [Example 44]	not fulfilled
CS(=O)(=O)NCCN(CC(=O)O)C(=O)c1cccc(COc2ccc(-c3cc(F)c(F)c4ccoc34)cc2)c1 [Example 16]	fulfilled

###

# reported pEC50; entries follow
biological target: human GYS1 (glycogen synthase) (Homo sapiens); test: Measurement of glycogen synthase activity; conditions: concentration causing 50% increase in relative activity; 100% = compound of Example 1 of WO/2011/058154 at 10 μM; 10 mM Glucose-6-phosphate; 37° C. for 25 minutes (Examples 1 to 61 and 67 to 82) or 20 minutes (Examples 62 to 66); absorbance at 340 nm
Sequence (P13807 whole entry): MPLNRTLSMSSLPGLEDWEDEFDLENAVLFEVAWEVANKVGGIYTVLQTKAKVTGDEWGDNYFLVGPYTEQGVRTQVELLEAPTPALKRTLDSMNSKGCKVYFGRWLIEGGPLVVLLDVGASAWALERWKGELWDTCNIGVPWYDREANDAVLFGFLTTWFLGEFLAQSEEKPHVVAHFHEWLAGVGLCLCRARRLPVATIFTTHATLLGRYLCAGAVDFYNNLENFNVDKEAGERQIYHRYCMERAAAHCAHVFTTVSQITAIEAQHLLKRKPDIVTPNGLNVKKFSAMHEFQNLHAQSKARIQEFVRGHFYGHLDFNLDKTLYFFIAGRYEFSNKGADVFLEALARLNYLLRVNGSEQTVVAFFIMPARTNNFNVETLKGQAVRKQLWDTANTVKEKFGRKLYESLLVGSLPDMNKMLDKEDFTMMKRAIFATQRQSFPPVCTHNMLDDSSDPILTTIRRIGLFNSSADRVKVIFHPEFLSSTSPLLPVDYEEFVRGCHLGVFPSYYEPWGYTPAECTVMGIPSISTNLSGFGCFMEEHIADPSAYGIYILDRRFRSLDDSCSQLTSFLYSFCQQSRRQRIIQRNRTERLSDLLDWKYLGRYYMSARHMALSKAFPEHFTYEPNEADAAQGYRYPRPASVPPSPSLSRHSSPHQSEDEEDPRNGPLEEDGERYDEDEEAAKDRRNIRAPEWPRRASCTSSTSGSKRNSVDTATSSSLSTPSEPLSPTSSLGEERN
pEC50: −log10 of the molar value. Where a name gives a salt, the structure may show the parent alone.
Measured attribute: pEC50

Compound	Bound sign	Observed
CSc1cc(F)c(F)cc1-c1ccc(OCc2cccc(C(=O)N(CC(=O)O)Cc3ccn[nH]3)c2)cc1 [Example 54]	=	7.82
CSc1cc(F)c(F)cc1-c1ccc(OCc2cccc(C(=O)N(CCN3CCCC3)CC(=O)O)c2)cc1 [Example 40, Trifluoroacetate]	=	7.62
CSc1cc(F)c(F)cc1-c1ccc(OCc2cccc(C(=O)N3[C@@H](CO)CC[C@H]3C(=O)O)c2)cc1 [Example 64]	=	7.66
NC(=O)C1CC[C@@H](C(=O)O)N1C(=O)c1cccc(COc2ccc(-c3cc(F)c(F)c4ccoc34)cc2)c1 (single isomer, unassigned) [Example 76]	=	7.66
CSc1cc(F)c(F)cc1-c1ccc(OCc2cccc(C(=O)N(CCS(N)(=O)=O)CC(=O)O)c2)cc1 [Example 51]	=	8.28
CSc1cc(F)c(F)cc1-c1ccc(OCc2cccc(C(=O)N(CC(=O)O)Cc3nnc(C)o3)c2)cc1 [Example 73]	=	7.82
CN(C)C(=O)CN(CC(=O)O)C(=O)c1cccc(COc2ccc(-c3cc(F)c(F)c4ccoc34)cc2)c1 [Example 11]	=	8.00
CNC(=O)CN(CC(=O)O)C(=O)c1cccc(COc2ccc(-c3cc(F)c(F)c4ccoc34)cc2)c1 [Example 15]	=	7.89
CNS(=O)(=O)CCN(CC(=O)O)C(=O)c1cccc(COc2ccc(-c3cc(F)c(F)cc3SC)cc2)c1 [Example 56]	>	8.52
CSc1cc(F)c(F)cc1-c1ccc(OCc2cccc(C(=O)N3C[C@H](C(N)=O)C[C@H]3C(=O)O)c2)cc1 [Example 61]	=	7.72
CSc1cc(F)c(F)cc1-c1ccc(OCc2cccc(C(=O)N(CC(N)=O)CC(=O)O)c2)cc1 [Example 10]	=	8.14
CSc1cc(F)c(F)cc1-c1ccc(OCc2cccc(C(=O)N(CC(=O)O)Cc3noc(C)n3)c2)cc1 [Example 69]	=	7.70
CSc1cc(F)c(F)cc1-c1ccc(OCc2cccc(C(=O)N(CC(=O)O)Cc3cocn3)c2)cc1 [Example 52]	=	8.36
CSc1cc(F)c(F)cc1-c1ccc(OCc2cccc(C(=O)N(CC(=O)O)Cc3ccccn3)c2)cc1 [Example 20, Trifluoroacetate]	=	8.19

###

target: PPAR-α (Homo sapiens, UniProt Q07869); construct: expressed in transfected cells; host or cells: CV-1 (African green monkey kidney); assay: Measurement of PPAR-α activity (GAL4 luciferase reporter assay in CV-1 cells); type: cell-based; details: 100(A/B): A = maximum PPAR-α activity of test compound at 3, 10, 30 and 100 μM, B = activity of the compound of WO/2011/058154 at 100 μM, 18 to 20 hours, read-out: Relative fold induction (%) of PPAR α
Where a name gives a salt, the structure may show the parent alone.
Classify by measured Emax: Satisfied if it is equal to or exceeds 5%, Not satisfied if it is smaller.

Molecule	Target of assay	Class assignment
CN(C)C(=O)CN(CC(=O)O)C(=O)c1cccc(COc2ccc(-c3cc(F)c(F)c4ccoc34)cc2)c1 [Example 11]	PPAR-α (Homo sapiens, UniProt Q07869)	Satisfied
CSc1cc(F)c(F)cc1-c1ccc(OCc2cccc(C(=O)N(CC(=O)O)[C@@H](C)C(N)=O)c2)cc1 [Example 22]	PPAR-α (Homo sapiens, UniProt Q07869)	Satisfied
O=C(O)CN(CC1CCNCC1)C(=O)c1cccc(COc2ccc(-c3cc(F)c(F)c4ccoc34)cc2)c1 [Example 12, Trifluoroacetate]	PPAR-α (Homo sapiens, UniProt Q07869)	Not satisfied
CSc1cc(F)c(F)cc1-c1ccc(OCc2cccc(C(=O)N(CCS(N)(=O)=O)CC(=O)O)c2)cc1 [Example 51]	PPAR-α (Homo sapiens, UniProt Q07869)	Satisfied
CSc1cc(F)c(F)cc1-c1ccc(OCc2cccc(C(=O)N(CC(=O)O)Cc3ccccn3)c2)cc1 [Example 20, Trifluoroacetate]	PPAR-α (Homo sapiens, UniProt Q07869)	Satisfied
CSc1cc(F)c(F)cc1-c1ccc(OCc2cccc(C(=O)N(CC(=O)O)CC3CCS(=O)(=O)C3)c2)cc1 (stereo not shown) [Example 46]	PPAR-α (Homo sapiens, UniProt Q07869)	Not satisfied
CN(C)CCN(CC(=O)O)C(=O)c1cccc(COc2ccc(-c3cc(F)c(F)c4ccoc34)cc2)c1 [Example 13, Trifluoroacetate]	PPAR-α (Homo sapiens, UniProt Q07869)	Satisfied

###

Molecular target: PPAR-α (Homo sapiens, UniProt Q07869)
Construct: expressed in transfected cells; host or cells: CV-1 (African green monkey kidney)
Sequence (Q07869 167-468): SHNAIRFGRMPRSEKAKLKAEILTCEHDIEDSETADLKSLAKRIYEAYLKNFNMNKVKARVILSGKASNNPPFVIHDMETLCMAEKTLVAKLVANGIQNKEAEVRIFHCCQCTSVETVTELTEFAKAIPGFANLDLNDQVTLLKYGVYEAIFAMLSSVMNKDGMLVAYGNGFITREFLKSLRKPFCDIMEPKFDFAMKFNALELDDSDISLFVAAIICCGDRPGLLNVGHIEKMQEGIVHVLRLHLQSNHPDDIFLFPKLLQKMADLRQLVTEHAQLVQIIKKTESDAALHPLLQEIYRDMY
Assay: Measurement of PPAR-α activity (GAL4 luciferase reporter assay in CV-1 cells)
Format: cell-based
Conditions: 100(A/B): A = maximum PPAR-α activity of test compound at 3, 10, 30 and 100 μM, B = activity of the compound of WO/2011/058154 at 100 μM, 18 to 20 hours, read-out: Relative fold induction (%) of PPAR α
Structures can show the parent of a compound that is named as a salt.
Measured attribute: Emax (%)

Molecule	Observed
CSc1cc(F)c(F)cc1-c1ccc(OCc2cccc(C(=O)N3CC[C@H](O)[C@H]3C(=O)O)c2)cc1	10
CSc1cc(F)c(F)cc1-c1ccc(OCc2cccc(C(=O)N(CC(=O)O)Cc3cocn3)c2)cc1	8.1
Cc1coc2c(-c3ccc(OCc4cccc(C(=O)N(CCS(C)(=O)=O)CC(=O)O)c4)cc3)cc(F)c(F)c12	7.5
CSc1cc(F)c(F)cc1-c1ccc(OCc2cccc(C(=O)N(CCN3CCCC3)CC(=O)O)c2)cc1 [Example 40, Trifluoroacetate]	9.4
CSc1cc(F)c(F)cc1-c1ccc(OCc2cccc(C(=O)N3C(C(N)=O)CC[C@H]3C(=O)O)c2)cc1 (single isomer, unassigned)	6.7
CSc1cc(F)c(F)cc1-c1ccc(OCc2cccc(C(=O)N(CC(=O)O)Cc3ccnn3C)c2)cc1	11
COCCCN(CC(=O)O)C(=O)c1cccc(COc2ccc(-c3cc(F)c(F)cc3SC)cc2)c1	83
